test system: A673/TR/shEF; experiment: cell viability (LOESS-normalised, relative to median of negative controls) (log2 ratio); higher = more viable cells (less compound effect), active = hit call of the paper (over 3 MAD below the median); conditions: 0.308 µM; library screen: screen3; EWS-FLI1 expression: high (no doxycycline); treatment time: 72 h
About 300 (9.4%) of roughly 3,200 compounds showed activity. The sample holds actives, similar compounds and a random draw of the others, so the mix is not that of the screen.
METRIC: cell viability (log2)
Answers are plain numbers.

Challenge: cell viability (log2) for `O=c1c(-c2ccc(O)cc2)coc2cc(O)ccc12` ?
Response given: 0.12

I have 8 compounds here; please give me cell viability (log2) for each one.
1. COc1nc(N)nc2c1ncn2[C@@H]1O[C@H](CO)[C@@H](O)[C@@H]1O
2. CCCCCCCCCC(=O)N[C@@H](Cc1c[nH]c2ccccc12)C(=O)N[C@@H](CC(N)=O)C(=O)N[C@@H](CC(=O)O)C(=O)NC1C(=O)NCC(=O)N[C@@H](CCCN)C(=O)N[C@@H](CC(=O)O)C(=O)N[C@H](C)C(=O)N[C@@H](CC(=O)O)C(=O)NCC(=O)N[C@H](CO)C(=O)N[C@@H](C(C)CC(=O)O)C(=O)N[C@@H](CC(=O)c2ccccc2N)C(=O)OC1C (stereo not given in full)
3. Clc1ccc(COC(Cn2ccnc2)c2ccc(Cl)cc2Cl)cc1 (stereo not given)
4. Cc1cn([C@H]2C=C[C@@H](CO)O2)c(=O)[nH]c1=O
5. Cc1nc(N)sc1-c1ccnc(Nc2ccc(N3CCOCC3)cc2)n1
6. O=C(/C=C/c1cccc(S(=O)(=O)Nc2ccccc2)c1)NO
7. C[C@@H](Oc1cc(-c2cnn(C3CCNCC3)c2)cnc1N)c1c(Cl)ccc(F)c1Cl
8. CCCCCCCCc1ccc(CCC(N)(CO)CO)cc1

Response given:
1: 0.111; 2: 0.0186; 3: 0.00202; 4: -0.0178; 5: 0.0424; 6: 0.00773; 7: 0.0248; 8: 0.0332

I have 8 compounds here; please give me cell viability (log2) for each one.
1. C[C@@H]1C/C=C/C=C/C=C/C=C/[C@H](OC2O[C@H](C)[C@@H](O)[C@H](N)[C@@H]2O)C[C@@H]2O[C@](O)(C[C@@H](O)C[C@H]3O[C@@H]3/C=C/C(=O)O1)C[C@H](O)[C@H]2C(=O)O (stereo not given in full)
2. Oc1ccc(OCc2ccccc2)cc1
3. Cn1c(=O)c2[nH]cnc2n(C)c1=O
4. O=c1cc(-c2cccc3c2Sc2ccccc2S3)oc(N2CCOCC2)c1
5. CC1(C)C(=O)N(CCN2CCC(C(=O)c3ccc(F)cc3)CC2)c2ccccc21
6. CCC(C)(C)C(=O)O[C@H]1C[C@@H](C)C=C2C=C[C@H](C)[C@H](CC[C@@H]3C[C@@H](O)CC(=O)O3)[C@H]21
7. Cc1cn([C@@H]2C[C@@H](O)[C@H](CO)O2)c(=O)[nH]c1=O
8. S=c1nc[nH]c2nc[nH]c12

Response given:
1. 0.0456
2. 0.0306
3. 0.11
4. -0.0309
5. 0.05
6. 0.153
7. 0.0611
8. 0.144

I have 3 compounds here; please give me cell viability (log2) for each one.
1. Nc1nc(=S)c2[nH]cnc2[nH]1
2. CCN(CC)C(=S)SSC(=S)N(CC)CC
3. O=c1[nH]c(=O)n([C@H]2C[C@H](O)[C@@H](CO)O2)cc1C(F)(F)F

Response given:
[0.156, -0.158, 0.134]

---

tested on: A673/TR/shEF; experiment: cell viability (LOESS-normalised, relative to median of negative controls) (log2 ratio); higher = more viable cells (less compound effect), active = hit call of the paper (over 3 MAD below the median); conditions: 0.926 µM; library screen: screen3; EWS-FLI1 expression: high (no doxycycline); treatment time: 72 h
In all, about 3,200 compounds went through this assay and about 300 (9.4%) showed activity. The full list was thinned out, with actives kept by preference.
METRIC: cell viability (log2)
Numbers only.

Some entries whose results are on file:
Challenge: cell viability (log2) for `Nc1nc(Cl)nc2c1ncn2[C@H]1C[C@H](O)[C@@H](CO)O1` ?
Response given: 0.0147

Challenge: cell viability (log2) for `C[C@H](NCCc1ccc(O)cc1)[C@H](O)c1ccc(O)cc1` ?
Response given: 0.0419

I have 5 molecules here; please give me cell viability (log2) for each one.
1. O=C(c1cc(Cc2n[nH]c(=O)c3ccccc23)ccc1F)N1CCN(C(=O)C2CC2)CC1
2. COc1c(C)c2c(c(O)c1C/C=C(\C)CCC(=O)OCCN1CCOCC1)C(=O)OC2
3. CCCCC1C(=O)N(c2ccccc2)N(c2ccccc2)C1=O
4. COCC(=O)NC/C=C/c1ccc2ncnc(Nc3ccc(Oc4ccc(C)nc4)c(C)c3)c2c1
5. COc1ccc(-c2ccc3c(N4CCOCC4)nc(N4C[C@@H](C)O[C@@H](C)C4)nc3n2)cc1CO

Response given:
1. 0.00937
2. -0.00635
3. 0.0763
4. -0.0118
5. -0.171

---

Please provide measured cell viability (log2) for the entries that follow.
test system: A673/TR/shEF; assay: cell viability (LOESS-normalised, relative to median of negative controls) (log2 ratio); higher = more viable cells (less compound effect), active = hit call of the paper (over 3 MAD below the median); conditions: 0.103 µM; library screen: screen3; EWS-FLI1 expression: high (no doxycycline); treatment time: 72 h
In all, about 3,200 compounds went through this assay and about 300 (9.4%) showed activity. Shown is part of a subset that was picked to be rich in actives.
Numbers only.

Some entries whose results are on file:
Challenge: Please provide the recorded cell viability (log2) for `Nc1nc(=S)c2[nH]cnc2[nH]1` , tested on A673/TR/shEF.
Response given: 0.132

Challenge: Please provide the recorded cell viability (log2) for `CO[C@H]1C[C@@H]2CC[C@@H](C)[C@@](O)(O2)C(=O)C(=O)N2CCCC[C@H]2C(=O)O[C@H]([C@H](C)C[C@@H]2CC[C@@H](OCCO)[C@H](OC)C2)CC(=O)[C@H](C)/C=C(\C)[C@@H](O)[C@@H](OC)C(=O)[C@H](C)C[C@H](C)/C=C/C=C/C=C/1C` , tested on A673/TR/shEF.
Response given: -0.823

Challenge: Please provide the recorded cell viability (log2) for `CCN(CCO)CCCOc1ccc2c(Nc3cc(CC(=O)Nc4cccc(F)c4)[nH]n3)ncnc2c1` , tested on A673/TR/shEF.
Response given: -0.49

Challenge: Please provide the recorded cell viability (log2) for CCC1=C(C)CN(C(=O)NCCc2ccc(S(=O)(=O)NC(=O)NC3CCC(C)CC3)cc2)C1=O (configuration not stated) , tested on A673/TR/shEF.
Response given: 0.065

Challenge: Please provide the recorded cell viability (log2) for `c1ccc([C@H]2CN3CCSC3=N2)cc1` , tested on A673/TR/shEF.
Response given: 0.103

I have 3 compounds here; please give me cell viability (log2) for each one.
1. O=C(CCCCCCC(=O)Nc1ccccc1)NO
2. O=C(/C=C/c1cccc(S(=O)(=O)Nc2ccccc2)c1)NO
3. CCc1nc(N)nc(N)c1-c1ccc(Cl)cc1

Response given:
1: 0.0138; 2: 0.0161; 3: 0.0417

---

test system: A673/TR/shEF; assay: cell viability (LOESS-normalised, relative to median of negative controls) (log2 ratio); higher = more viable cells (less compound effect), active = hit call of the paper (over 3 MAD below the median); conditions: 0.926 µM; library screen: screen3; EWS-FLI1 expression: high (no doxycycline); treatment time: 72 h
In all, about 3,200 compounds went through this assay and about 300 (9.4%) showed activity. The sample as a whole holds a higher share of actives than the screen did.
Please provide measured cell viability (log2) for the entries that follow.
Numbers only.

Challenge: cell viability (log2) for `CN(C)c1ccc(C(=C2C=CC(=[N+](C)C)C=C2)c2ccc(N(C)C)cc2)cc1` ?
Response given: 0.098

Challenge: cell viability (log2) for `CC[C@H](CO)Nc1nc(NCc2ccccc2)c2ncn(C(C)C)c2n1` ?
Response given: -0.0162

Challenge: cell viability (log2) for `CN(C)CCCN1c2ccccc2Sc2ccc(Cl)cc21` ?
Response given: 0.0627

I have 2 compounds here; please give me cell viability (log2) for each one.
1. Cn1cnc2c(F)c(Nc3ccc(Br)cc3Cl)c(C(=O)NOCCO)cc21
2. Cn1c(CNc2ccc(C(=N)N)cc2)nc2cc(C(=O)N(CCC(=O)O)c3ccccn3)ccc21

Response given:
-0.189
0.0456

---

system: A673/TR/shEF; assay: cell viability (LOESS-normalised, relative to median of negative controls) (log2 ratio); higher = more viable cells (less compound effect), active = hit call of the paper (over 3 MAD below the median); details: 25 µM; library screen: screen3; EWS-FLI1 expression: high (no doxycycline); treatment time: 72 h
Hit rate of the full screen: of about 3,200 compounds, about 300 (9.4%) showed activity. What follows is part of a selection rich in actives, with near analogues and random picks from the rest.
Mark yes (1) only for cell viability (log2) values smaller than -0.02; exact matches and larger values are no (0).

Challenge: Given `C[C@]12CC[C@@H]3c4ccc(O)cc4CC[C@H]3[C@@H]1CC[C@@H]2O` , is recorded cell viability (log2) strictly lower than -0.02?
Response given: no (0)
